tested target: T1, AF9 YEATS domain, His-AF9 (1-138) (human, UniProt P42568 1-138)
T1 construct: Expressed in E. coli; not shown: His tag
T1 sequence (looked up): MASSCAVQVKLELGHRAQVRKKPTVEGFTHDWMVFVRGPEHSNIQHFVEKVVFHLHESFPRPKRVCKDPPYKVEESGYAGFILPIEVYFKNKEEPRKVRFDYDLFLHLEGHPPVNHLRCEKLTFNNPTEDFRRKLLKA
measurement description: photo-cross-linking competition vs photoaffinity probe, in-gel fluorescence
No end group written: not given here. *: point of attachment. 2Furoyl = O=C(c1ccco1)*
Strictly below 0.5 µM in IC50: true. Otherwise: false.

Task item: In plain terms, does QTARK(2Furoyl)-NH2 (not fully specified (N-terminus), Full structure only as drawing) [compound 74 (competitor Cbz-4)] come in under 0.5 µM for IC50?
Reply: true

Task item: Lab note: IC50 threshold 0.5 µM. Does this binder come in strictly under it? H-KQTARK(2Furoyl)-NH2 (SMILES C[C@H](NC(=O)[C@@H](NC(=O)[C@H](CCC(N)=O)NC(=O)[C@@H](N)CCCCN)[C@@H](C)O)C(=O)N[C@@H](CCCNC(=N)N)C(=O)N[C@@H](CCCCNC(=O)c1ccco1)C(N)=O, also called 4.7i) [compound 25 (XL-07i)]
Reply: true

Task item: Take the binder KQTARKSTGG-NH2 (not fully specified (residue 6); also: Lys6 acylated with group R, structure drawing only, also called 4.16) [compound 16 (XL-16)] and say whether its IC50 is less than 0.5 µM.
Reply: false

Task item: Lab note: IC50 threshold 0.5 µM. Does this binder come in strictly under it? KQTARK(cyclopentanecarbonyl)STGG-NH2 (also called 4.17) [compound 86 (negative control), XL-17]
Reply: false

Task item: Report whether reported IC50 is lower than 0.5 µM (strictly) for KQTARK(isonicotinoyl)STGG-NH2 (also called 4.5) [compound 5 (XL-05)]
Reply: false
